TESTED SYSTEM: T1, human CD137-human Fc chimeric protein (Acro Biosystems cat no. 41B-H5258) (human, UniProt Q07011 24-186)
T1 construct: Bought protein; The Octet Protein G and Biacore experiments name no catalogue number; also called human CD137Fc recombinant protein; human CD137-Fc recombinant protein; not shown: human IgG1 Fc tag
MEASUREMENT NOTES: BLI (Octet RED384), CD137-Fc on Protein G sensors, 1:1 model
EXPERIMENTAL ENDPOINT: koff
Give the value; after it, write the unit.

>>> result("Humabody VH 1.11 (VHH, human single VH domain) VH: EVQLVESGGGLVQPGGSLRLSCEASGFTFSDYWMNWARQAPGKGLEWVANIKEDGSEKYYVDSVEGRFTISRDNAKNSTYLQMNSLRAEDTAVYYCARGGAGYSMSHYGMDVWGQGTTVTVSSHHHHHH")
"0.00148 s⁻¹"
>>> result("Humabody VH 1.16 (VHH, human single VH domain) VHH: EVQLVESGGGLVQPGGSLRLSCVASGFTFSNYWMMWFRQAPGKGLEWVANINQDGSEKYFVDSVEGRFTISRDNAKNSLYLQMNSLRAEDTAVYYCARGGDGYSSSHYGTDVWGQGTTVTVSS")
"0.00145 s⁻¹"
>>> result("Humabody VH 1.52 (VHH, human single VH domain) VH: EVQLVESGGGLVQIGGSLRLSCAASGFTFSKYWMIWVRQAPEKGLEWVANINQDGSEKYYVDSVEGRFTISRDNANNSLFLQMNSLRAEDTAVYYCARGGDDYSISHFGMDVSGQGTRVTVSSHHHHHH")
"0.000963 s⁻¹"
>>> result("Humabody VH 1.75 (VHH, human single VH domain) VHH: QVQLVESGGGLVQPGGSLRLSCAASGFTFSDYYMSWIRQAPGKGLEWVANINQDGSERYYVDSVKGRFTISRDNAKNSLYLQMSSLRAEDTAVYFCARGGEGYGVDHYGLDVSGQGTTVTVSS")
"0.000353 s⁻¹"
>>> result("Humabody VH 1.1 (VHH, human single VH domain; also called single domain antibody 1.1) VH: EVQLVESGGGLVQPGGSLRLSCAASGFTFSSHWMTWFRQAPGKGLEWVAHIKEDGSEKYYEDSVEGRFTVSRDNAKNSVYLQMNSLRAEDTAVYYCARGGDGYSDSHFGVDVWGQGTTVTVSSHHHHHH")
"0.00034 s⁻¹"

Given the entry Humabody VH 1.18 (VHH, human single VH domain) VH: EVQLVESGGGLVQPGGSLRLSCAASGFTFSTHWMNWARQAPGKELEWVANINQDGSEKYYVDSVEGRFTISRDNANNSLYLQMNSLRAEDTAVYYCARGGVGYGDSHFGMDVWGLGTTVTVSSHHHHHH , report its measured koff. 0.000625 s⁻¹

Given the entry Humabody VH 2.14 (VHH, human single VH domain) VH: EVQLVESGGGLVKPGGSLRLSCAASGFTFSDYYMTWFRQAPGKGLEWISYISGSGDTIDYAESVKGRFTISRDNAKNSLYLQMNSLRAEDTAVYYCAREDIRMPGTTDFDHWGQGTLVTVSSHHHHHH , report its measured koff. 0.00157 s⁻¹

Given the entry Humabody VH 1.63 (VHH, human single VH domain) VHH: EVQLVESGGGLVQPGGSLSLSCAASGFTFRSFWMNWVRQAPGKEAEWVANINQDGSEKYYVDSVKGRFTISRDNAKNSLFLQMNSLRAEDTAVYYCARGGPDYGDLHYGMDVWGQGTTVTVSS , report its measured koff. 0.000596 s⁻¹

Given the entry Humabody VH 2.1 (VHH, human single VH domain) VH: EVQLVESGGGLVKPGGSLRVSCAASGFTFSDYYMSWFRQAPGKGLEWVSYISGSGDIIDYADSVKGRFTISRDNAKNSLYLQMNNLRAEDTAVYHCAREDSRLTGTTDFDNWGQGTLVTVSSHHHHHH , report its measured koff. 0.00388 s⁻¹

Given the entry Humabody VH 1.39 (VHH, human single VH domain) VHH: EVQLVESGGGLVQPGGSLRLSCAASGFTFSNYWMNWVRQAPGKELEWVANINQDESEKYYVDSVKGRFTVSRDNAKNSLFLQMNSLRADDTAVYYCARGGFGYGDSHFGMDVWGQGTTVTVSS , report its measured koff. 0.000505 s⁻¹

Given the entry Humabody VH 2.26 (VHH, human single VH domain) VHH: EVQLVESGGGLVKPGGSLRLSCTASGFTFTDYYMSWFRQAPGKGLEWVSHISSSGTTIDYADSVKGRFTISRDNAKNSLYLQMNSLRADDTAVYYCAREDIRMPGTTDFDNWGQGTLVTVSS , report its measured koff. 0.00842 s⁻¹

Given the entry Humabody VH 2.8 (VHH, human single VH domain) VH: EVQLVESGGGLVKPGGSLRLSCAASGFAFSDYYMSWFRQAPGKGLEWVSHISGSGTTIDYADSVKGRFTISRDNAKNSLYLQMNSLRAEDTAVYHCAREDSRMPGTTDFDNWGQGTLVTVSSHHHHHH , report its measured koff. 0.00616 s⁻¹
